biological target: IGF-1R (Homo sapiens, UniProt P08069); construct: purchased Upstate Co. 14-465; experiment: IGF-1R inhibitory activity (kinase reaction, time-resolved fluoroimmunoassay); type: biochemical; conditions: IGF-1R active recombinant enzyme, test compound 10 μmol/L
Sequence (P08069 959-1367 limits assumed): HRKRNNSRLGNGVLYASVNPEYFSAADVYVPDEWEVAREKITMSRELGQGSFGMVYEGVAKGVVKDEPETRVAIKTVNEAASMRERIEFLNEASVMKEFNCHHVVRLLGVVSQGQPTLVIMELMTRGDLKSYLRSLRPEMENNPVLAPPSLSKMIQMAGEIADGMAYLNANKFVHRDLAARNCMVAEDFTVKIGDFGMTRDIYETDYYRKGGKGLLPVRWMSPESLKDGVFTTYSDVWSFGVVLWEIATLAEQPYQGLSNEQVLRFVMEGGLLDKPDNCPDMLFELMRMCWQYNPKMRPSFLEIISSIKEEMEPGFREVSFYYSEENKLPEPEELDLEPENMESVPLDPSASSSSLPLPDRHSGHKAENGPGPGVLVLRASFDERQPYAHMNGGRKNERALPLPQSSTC
measure-name: inhibitory activity (%) at 10 μmol/L
Answers are plain numbers, in %.

Before answering, review these 8 worked examples.
- given-smiles: "Cc1ccc(C)n1-c1ccccc1/C=C/c1n[nH]c2ccccc12"
  inhibitory activity (%) at 10 μmol/L: 96.9
- given-smiles: "CON(C)C(=O)c1ccc(/C=C/c2n[nH]c3ccccc23)c(NC(=O)c2sccc2C)c1"
  inhibitory activity (%) at 10 μmol/L: 102.1
- given-smiles: "Cc1c(C(=O)Nc2ccccc2/C=C/c2n[nH]c3ccccc23)sc2ccccc12"
  inhibitory activity (%) at 10 μmol/L: 99.1
- given-smiles: "Cl.Cn1cccc1C(=O)Nc1cc(N2CCOCC2)ccc1/C=C/c1n[nH]c2ccccc12"
  inhibitory activity (%) at 10 μmol/L: 100.2
- given-smiles: "CN(C)/C=N/c1ccccc1C=Cc1n[nH]c2ccccc12"
  inhibitory activity (%) at 10 μmol/L: 90.4
- given-smiles: "COCCCN1CCN(Cc2ccc(/C=C/c3n[nH]c4ccccc34)c(N3Cc4c(N)cccc4C3=O)c2)CC1"
  inhibitory activity (%) at 10 μmol/L: 105.8
- given-smiles: "O=C(Nc1cc(Cl)ccc1/C=C/c1n[nH]c2ccccc12)c1cccs1"
  inhibitory activity (%) at 10 μmol/L: 101.8
- given-smiles: "COC1CCN(C(=O)c2ccc(/C=C/c3n[nH]c4ccccc34)c(N3C(=O)c4cccc(N)c4C3=O)c2)CC1"
  inhibitory activity (%) at 10 μmol/L: 100.2

Proceeding to the next compound to report its inhibitory activity (%) at 10 μmol/L.
stdin: Could you tell me which inhibitory activity (%) at 10 μmol/L is on file for `COc1c(OCCN2CCC(O)CC2)ccc(/C=C/c2n[nH]c3ccccc23)c1NC(=O)c1sccc1C` ?
stdout: 101.9

====

Would you mind telling me the reported inhibition at 10 µM of each entry?
Biological target: IGF-1R (Homo sapiens)
Construct: purchased Upstate Co. 14-465
Assay: IGF-1R inhibitory activity (kinase reaction, time-resolved fluoroimmunoassay)
Assay type: biochemical
Details: IGF-1R active recombinant enzyme, test compound 10 μmol/L
Experimental: The IGF-1R inhibitory activity was measured in the following manner. As IGF-1R, active recombinant enzyme (Catalog No. 14-465) purchased from Upstate Co., was used. […] 4 times, then reacted with europium-labeled anti-phosphotyrosine antibody, further washed with TBS-T 4 times and then, measured with time-resolved fluoroimmunoassay (excitation wavelength 340 nm, measuring wavelength 615 nm). […]
One number for each entry, in %.

Before answering, review these 2 worked examples.
- compound: "O=C1c2ccccc2CN1c1ccccc1/C=C/c1n[nH]c2ccccc12 [Compound 213]"
  quantity-unit: "%"
  inhibition at 10 µM: 99
- compound: "CCOC(=O)c1cnc(Nc2ccccc2/C=C/c2n[nH]c3ccccc23)s1 [Compound 165]"
  quantity-unit: "%"
  inhibition at 10 µM: 93.8

Look at each compound and report its inhibition at 10 µM.
1. O=C1c2ccccc2C(=O)N1c1cc(N2CCN(CCO)CC2)ccc1/C=C/c1n[nH]c2ccccc12 [Compound 299]
2. O=C1CNC(=O)N1c1ccccc1/C=C/c1n[nH]c2ccccc12 [Compound 212]
3. N#Cc1ccccc1/C=C/c1n[nH]c2ccccc12 [Compound 136]

stdout:
1: 92.9; 2: 83.6; 3: 85.3
